- tested.system: T1, human ROR2 expressed on the cell surface (human, UniProt Q01974 34-943)
- T1 construct: Endogenous ROR2 of human tumour cell lines; also called cell surface ROR2; ROR2 on tumour cell lines
- T1 sequence (Q01974 34-943 limits assumed): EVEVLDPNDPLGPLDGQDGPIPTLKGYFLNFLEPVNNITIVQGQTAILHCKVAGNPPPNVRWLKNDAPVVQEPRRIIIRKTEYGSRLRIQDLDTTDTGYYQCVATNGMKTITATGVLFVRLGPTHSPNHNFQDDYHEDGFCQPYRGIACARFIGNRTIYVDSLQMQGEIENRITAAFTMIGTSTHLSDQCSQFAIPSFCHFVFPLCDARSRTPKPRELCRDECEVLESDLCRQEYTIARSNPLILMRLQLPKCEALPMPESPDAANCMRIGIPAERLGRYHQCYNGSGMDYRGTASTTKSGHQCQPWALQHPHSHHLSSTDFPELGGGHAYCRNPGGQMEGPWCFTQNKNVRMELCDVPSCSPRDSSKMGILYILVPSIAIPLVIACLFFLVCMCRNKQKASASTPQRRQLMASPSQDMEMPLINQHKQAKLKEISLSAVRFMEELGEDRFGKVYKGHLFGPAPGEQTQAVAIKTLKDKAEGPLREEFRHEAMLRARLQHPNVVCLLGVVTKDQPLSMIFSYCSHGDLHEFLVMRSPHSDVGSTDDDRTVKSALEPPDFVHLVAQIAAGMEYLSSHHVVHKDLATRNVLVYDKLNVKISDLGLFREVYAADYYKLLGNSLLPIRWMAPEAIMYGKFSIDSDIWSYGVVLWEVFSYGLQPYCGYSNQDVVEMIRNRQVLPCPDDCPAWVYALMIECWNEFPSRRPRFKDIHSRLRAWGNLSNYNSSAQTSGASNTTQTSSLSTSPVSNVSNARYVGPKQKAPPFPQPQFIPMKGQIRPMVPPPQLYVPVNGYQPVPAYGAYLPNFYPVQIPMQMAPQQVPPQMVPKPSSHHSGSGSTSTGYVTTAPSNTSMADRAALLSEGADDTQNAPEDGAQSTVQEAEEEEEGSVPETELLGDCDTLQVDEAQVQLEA
- test.protocol: flow cytometry, OVCAR3 cells (ovarian CA)
- Design: unit not given here
readout.kind: binding intensity

binder="ROR2-240 full length human IgG1 antibody (antibody, V domains shown, also called clone #240 IgG1) VH: QITLKESGPELVKPTQTLTLTCTFSGFSLSTSGMSVSWIRQPPGKALEWLARIDWDDDKYYSTSLKTRLTISKDTSKNQVVLTMTNTDPVDTATYYCARGFYLAYGSYDSWGQGTLVTVSS VL: QSALTQPASVSGSPGQSITISCTGTSGDVGGYNYVSWYQHHPGKAPKLIIYDVNKRPSGFSDRFSGSKSGNTASLTISGLQAEDEADYYCSSYTSTSTVFGGGTKLTVLG" val=4
binder="ROR2-90 full length human IgG1 antibody (antibody, V domains shown, also called clone #90; antibody #90) VH: EVQLVESGPGLVKPSQTLSLTCTVSGGSISSGGYYWSWIRQHPGKGLEWIGYIYYSGSTYYNPSLKSRVTISVDTSKNQFSLKLSSVTAADTAMYYCARGGLYWTYSQDVWGQGTLVTVSS VL: QPVLTQPPSASGTPGQRVTISCSGSSSNIGSDYVSWYQQLPGTAPKLLIYRNDQRPSGVPDRFSGSKSGTSASLAISGLRSEDEADYYCVAWDDSLSGYVFGSGTKVTVLG" val=48
binder="ROR2-241 full length human IgG1 antibody (antibody, V domains shown) VH: EVQLVQSGAEVKKPGASVKVSCKASGYTFTNYYIHWVRQAPGQGLEWMGIINPTSGRTRYAQRFQGRVTMTRDTSTNTVYMDLSSLRSEDTAMYYCARSGYYWGVNGDQWGQGTLVTVSS VL: SYELTQPLSVSVALGQTARITCGGNNIGSKNVHWYQQKPGQAPVLVIYRDSNRPSGIPERFSGSNSGNTATLTISRAQAGDEADYYCQVWDSSIVVFGGGTKLTVLG" val=22
binder="ROR2-23 full length human IgG1 antibody (antibody, V domains shown, The light chain of clone 023 is labelled kappa; also called clone #23; clone #023 IgG1) VH: EVQLVQSGAEVKKPGESLKISCQGSGYRFSKYWIGWVRQMPGKGLEWMGIIYPGDSDTRYSPSFQGQVTISADKSISTAYLQWSSLKASDTAMYYCARSFSSFIYDYWGQGTLVTVSS VL: ETTLTQSPGTLSVSPGERATLSCRASQSVSSNLAWYQQKRGQAPRLLIYGASTRATGIPVRFSGSGSGTEFTLTISRLEPEDFAVYYCQQYGRSPLTFGGGTKVDIKR" val=35

Data origin, for the record: patent US20180127503A1
